Origin of measurements: patent US4051141A

- Test: Acute toxicity, LD50/24 hrs, intravenous, derivatives of formula (IV)
- Assay conditions: mouse, in vivo, mice, read-out: LD50/24 hrs/kg body weight
Here, each record is paired with measured LD50 at 24 h data.
// return numeric value only (unit: mg/kg, not printed)

The examples below pair each entry with its known result.
O=C(C[n+]1ccc2sc(Cl)cc2c1)c1ccccc1.[Br-]	38
O=C(C[n+]1ccc2sccc2c1)c1ccc(F)cc1.[Cl-]	16
O=C(C[n+]1ccc2sccc2c1)c1ccc(O)cc1.[Cl-]	25

Let's switch to this molecule now.
-- ask Please give the documented LD50 at 24 h of O=C(C[n+]1ccc2sccc2c1)c1ccc(Cl)cc1.[Br-]
-- reply 17.5
